test target: T1, cCEACAM1, M. fascicularis CEACAM1 ECD (35-428) (Macaca fascicularis)
T1 construct: With 24 amino acid extension containing a His-Tag; also called cynomolgus CEACAM1
T1 chain: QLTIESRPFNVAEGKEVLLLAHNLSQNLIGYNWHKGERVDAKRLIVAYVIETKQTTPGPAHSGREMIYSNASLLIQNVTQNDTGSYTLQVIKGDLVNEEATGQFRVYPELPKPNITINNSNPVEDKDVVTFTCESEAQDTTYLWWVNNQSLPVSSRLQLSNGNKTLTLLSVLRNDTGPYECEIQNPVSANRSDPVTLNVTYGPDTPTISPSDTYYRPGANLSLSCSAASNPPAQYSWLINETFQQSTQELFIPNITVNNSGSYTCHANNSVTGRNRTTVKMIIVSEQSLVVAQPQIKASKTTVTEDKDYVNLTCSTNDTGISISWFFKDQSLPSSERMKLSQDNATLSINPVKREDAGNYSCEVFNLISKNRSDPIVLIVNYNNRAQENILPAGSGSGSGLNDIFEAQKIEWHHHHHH
protocol description: ELISA
So I've got a bunch of binders here, and I need their percentage of binding compared to full binding with cynomolgus CEACAM5 values.
Quick reminder: number only, in %, skip the unit.

### Prompt Provide one value: measured percentage of binding compared to full binding with cynomolgus CEACAM5 of huMAb2-4 (antibody, human IgG1, kappa, V domains shown, Humanized MAb2, human IgG1 / Ckappa; also called MAb2_VL1d VH1-IgG1; MAb2_VL1dVH1-IgG1) VH: EVQLQESGPGLVKPGGSLSLSCAASGFVFSSYDMSWVRQTPERRLEWVAYISSGGGITYFPSTVKGRFTVSRDNAKNTLYLQMNSLTSEDTAIYYCAAHYFGSSGPFAYWGQGTLVTVSA VL: DIQMTQSPASLSASVGDTVTITCRASENIFSYLAWYQQKPGKSPKLLVYNTRTLAEGVPSRFSGSGSGTQFSLTISSLQPEDFGSYYCQHHYGTPFTFGSGTKLEIKR
### Response 0.3

### Prompt Provide one value: measured percentage of binding compared to full binding with cynomolgus CEACAM5 of huMAb2-2 (antibody, V domains shown, Humanized MAb2 (VL1a + VH1a) fused to human IgG1 and human Ckappa constant domains; also called MAb2_VL1aVH1a-IgG1; MA2_VL1aVH1a-IgG1) VH: EVQLQESGPGLVKPGGSLSLSCAASGFVFSSYDMSWVRQTPERGLEWVAYISSGGGITYAPSTVKGRFTVSRDNAKNTLYLQMNSLTSEDTAVYYCAAHYFGSSGPFAYWGQGTLVTVSS VL: DIQMTQSPASLSASVGDRVTITCRASENIFSYLAWYQQKPGKSPKLLVYNTKTLAEGVPSRFSGSGSGTDFSLTISSLQPEDFATYYCQHHYGTPFTFGSGTKLEIK
### Response 0.3

### Prompt Provide one value: measured percentage of binding compared to full binding with cynomolgus CEACAM5 of huMAb2-1 (antibody, V domains shown, Humanized MAb2 (VL1 + VH1) fused to human IgG1 and human Ckappa constant domains; also called MAb2_VL1VH1-IgG1; MAb2VL1VH1-IgG1) VH: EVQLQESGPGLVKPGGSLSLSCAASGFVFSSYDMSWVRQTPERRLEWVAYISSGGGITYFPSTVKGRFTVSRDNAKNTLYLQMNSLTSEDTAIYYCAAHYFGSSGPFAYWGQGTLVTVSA VL: DIQMTQSPASLSASVGDTVTITCRASENIFSYLAWYQQKPGKSPKLLVYNTKTLAEGVPSRFSGSGSGTQFSLTISSLQPEDFGSYYCQHHYGTPFTFGSGTKLEIK
### Response 0.3

### Prompt Provide one value: measured percentage of binding compared to full binding with cynomolgus CEACAM5 of chMAb2 (antibody, human IgG1, kappa, V domains shown, Chimeric, human IgG1, Ck isotype; also called MAb2-IgG1; chimeric MAb2) VH: EVQLQESGGVLVKPGGSLKLSCAASGFVFSSYDMSWVRQTPEKRLEWVAYISSGGGITYFPDTVQGRFTVSRDNAKNTLYLQMNSLKSEDTAIYYCAAHYFGSSGPFAYWGQGTLVTVSA VL: DIQMTQSPASLSASVGETVTITCRASENIFSYLAWYQQKQGKSPQLLVYNTKTLAEGVPSRFSGSGSGTQFSLKINSLQPEDFGSYYCQHHYGTPFTFGSGTKLEIKR
### Response 0.2

### Prompt Provide one value: measured percentage of binding compared to full binding with cynomolgus CEACAM5 of huMAb2-3 (antibody, human IgG1, kappa, V domains shown, Humanized MAb2, human IgG1 / Ckappa; also called MAb2_VL1cVH1a-IgG1) VH: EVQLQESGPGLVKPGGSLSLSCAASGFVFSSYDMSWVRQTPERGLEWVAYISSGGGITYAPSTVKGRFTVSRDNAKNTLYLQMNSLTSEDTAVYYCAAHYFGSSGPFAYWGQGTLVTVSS VL: DIQMTQSPASLSASVGDRVTITCRASENIFSYLAWYQQKPGKSPKLLVYNTRTLAEGVPSRFSGSGSGTDFSLTISSLQPEDFATYYCQHHYGTPFTFGSGTKLEIKR
### Response 0.3
